test system: FT3469 (normal neural stem cell line); assay: surviving fraction (nuclei count normalised to DMSO); higher = more cells surviving (less toxic); conditions: 333.3 nM; exposure time: 72 h;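 further: nuclei counted by high-content imaging of Hoechst-stained cells in laminin-coated 384-well plates, relative to 0.1% DMSO vehicle wells, with staurosporine as cell-death control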
Where a name gives a salt, the structure may show the parent alone.
Give TRUE when the value for surviving fraction is at least 1. Give FALSE when it is less.

Below are worked cases with known answers.
Task: Has C[C@H](Cc1cc2c(c(C(N)=O)c1)N(CCCO)CC2)NCCOc1ccccc1OCC(F)(F)F a recorded surviving fraction greater than or equal to 1?
Result: FALSE

Task: Has Cc1nc2ccccn2c(=O)c1CCN1CCC(C(=O)c2ccc(F)cc2)CC1 a recorded surviving fraction greater than or equal to 1?
Result: TRUE

Next:
Task: Has CCC[C@@H]1C[C@@H](C(=O)N[C@@H]([C@H]2O[C@H](SC)[C@H](O)[C@@H](O)[C@H]2O)[C@@H](C)O)N(C)C1 [Lincomycin hydrochloride] a recorded surviving fraction greater than or equal to 1?
Result: TRUE

Task: Has COc1cc([C@@H]2c3cc4c(cc3[C@@H](O[C@@H]3O[C@@H]5CO[C@@H](c6cccs6)O[C@H]5[C@H](O)[C@H]3O)[C@H]3COC(=O)[C@H]23)OCO4)cc(OC)c1O [Teniposide] a recorded surviving fraction greater than or equal to 1?
Result: FALSE

Task: Has CC[C@H]1CN2CCc3cc(OC)c(OC)cc3[C@@H]2C[C@@H]1C[C@H]1NCCc2cc(OC)c(OC)cc21 [Emetine dihydrochloride hydrate] a recorded surviving fraction greater than or equal to 1?
Result: FALSE

Task: Has C#C[C@]1(O)CC[C@H]2[C@@H]3CCC4=CCCC[C@@H]4[C@H]3CC[C@@]21C a recorded surviving fraction greater than or equal to 1?
Result: TRUE

Task: Has C[C@H](NC(=O)[C@@H](O)c1cc(F)cc(F)c1)C(=O)N[C@@H]1C(=O)N(C)c2ccccc2-c2ccccc21 a recorded surviving fraction greater than or equal to 1?
Result: FALSE

Task: Has C=CC(=O)Nc1cccc(Oc2nc(Nc3ccc(N4CCN(C)CC4)cc3)nc3ccsc23)c1 a recorded surviving fraction greater than or equal to 1?
Result: FALSE

Task: Has C[C@@H]1C[C@@H]([C@H](O)CC2CC(=O)NC(=O)C2)C(=O)[C@@H](C)C1 [Cycloheximide] a recorded surviving fraction greater than or equal to 1?
Result: FALSE

Task: Has COc1cc(/C=C/C(=O)N2CCC=CC2=O)cc(OC)c1OC a recorded surviving fraction greater than or equal to 1?
Result: FALSE

Task: Has CN1[C@@H]2CC[C@H]1CC(OC(=O)c1c[nH]c3ccccc13)C2 (stereo not given in full) [3-Tropanyl-indole-3-carboxylate hydrochloride] a recorded surviving fraction greater than or equal to 1?
Result: FALSE

Task: Has CC(C)C(=O)OCC(=O)[C@@]12O[C@H](C3CCCCC3)O[C@@H]1C[C@H]1[C@@H]3CCC4=CC(=O)C=C[C@]4(C)[C@H]3[C@@H](O)C[C@@]12C [Ciclesonide] a recorded surviving fraction greater than or equal to 1?
Result: TRUE

Task: Has O=C(/C=C\n1cnc(-c2cc(C(F)(F)F)cc(C(F)(F)F)c2)n1)NNc1cnccn1 [Selinexor] a recorded surviving fraction greater than or equal to 1?
Result: FALSE
